Items are presented alongside their recorded kcat.
Test system: Shigella sonnei
Test: Activity at Shigella sonnei UIH-1 beta-lactamase CTX-M-64 by spectrophotometry
Your answer should be a plain number; it is taken to be in s⁻¹.

Some entries whose results are on file:
CO/N=C(\C(=O)N[C@@H]1C(=O)N2C(C(=O)O)=C(COC(C)=O)CS[C@H]12)c1csc(N)n1	197
CC1(C)S[C@@H]2[C@H](NC(=O)[C@H](N)c3ccccc3)C(=O)N2[C@H]1C(=O)O	36.9
CC(=O)OCC1=C(C(=O)O)N2C(=O)[C@@H](NC(=O)Cc3cccs3)[C@H]2SC1	185
CO/N=C(\C(=O)N[C@@H]1C(=O)N2C(C(=O)[O-])=C(C[N+]3(C)CCCC3)CS[C@H]12)c1csc(N)n1	67.7

[in] Please give the documented kcat of O=C(Cc1cccs1)N[C@@H]1C(=O)N2C(C(=O)O)=C(/C=C/c3ccc([N+](=O)[O-])cc3[N+](=O)[O-])CS[C@H]12
[out] 252

Recorded values, source ChEMBL document CHEMBL1629574.
